Measured values drawn from paper PMC9172550 for this set.

# system: PPARγ LBD protein (Homo sapiens, UniProt P37231)
# Construct: 1 nM 6xHis-PPAR LBD protein
# Sequence (P37231 238-503 limits assumed): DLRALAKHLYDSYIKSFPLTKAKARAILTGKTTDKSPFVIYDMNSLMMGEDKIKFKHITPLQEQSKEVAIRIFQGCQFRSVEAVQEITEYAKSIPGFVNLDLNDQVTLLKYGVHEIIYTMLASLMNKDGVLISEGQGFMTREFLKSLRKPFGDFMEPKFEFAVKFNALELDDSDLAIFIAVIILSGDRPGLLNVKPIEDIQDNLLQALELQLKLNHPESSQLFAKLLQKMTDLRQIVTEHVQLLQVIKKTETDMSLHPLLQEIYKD
# testProtocol: LanthaScreen TR-FRET competitive ligand displacement (PPARγ protein binding) assay
# cond: TR-FRET signal at 0.0064 µM
Catalogue of molecules with associated Raw Data (RLU)
Give just the number in RLU; leave the unit off.

Some solved entries appear below for comparison.
{"columns": ["querySmiles", "Raw Data (RLU)"],
 "data": [
  ["C=CCc1ccc(OCC(=O)Nc2ccc(Cl)cc2)c(OC)c1", 1.934],
  ["C=CCc1ccc(OCC(=O)Nc2ccc(C)cc2)c(OC)c1", 1.92],
  ["C=CCc1ccc(OCC(=O)Nc2ccc(OC)cc2)c(OC)c1", 1.913]
]}

We now examine a further molecule.
stdin: Would you mind telling me what Raw Data (RLU) value was observed for C=CCc1ccc(OCC(=O)Nc2cccc(C)c2)c(OC)c1 ?
stdout: 2.07
